What DC50 was measured for each of the following?
Molecular target: MK2 (Homo sapiens)
Sequence (P49137 whole entry): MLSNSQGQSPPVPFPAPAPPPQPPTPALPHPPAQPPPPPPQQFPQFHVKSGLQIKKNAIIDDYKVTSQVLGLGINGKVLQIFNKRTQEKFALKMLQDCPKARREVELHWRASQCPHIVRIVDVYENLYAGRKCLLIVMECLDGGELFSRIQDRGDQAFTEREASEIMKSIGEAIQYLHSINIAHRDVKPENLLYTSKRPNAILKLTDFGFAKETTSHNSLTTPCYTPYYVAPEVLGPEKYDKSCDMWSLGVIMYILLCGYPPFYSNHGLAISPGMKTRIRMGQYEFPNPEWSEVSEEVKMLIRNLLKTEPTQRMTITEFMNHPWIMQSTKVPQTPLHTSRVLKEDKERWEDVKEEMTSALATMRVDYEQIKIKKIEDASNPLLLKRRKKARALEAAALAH
Test: MK2 degradation in human SW1353 cells (MSD, 24 h)
Format: cell-based
Set-up: endogenous in cells; host or cells: SW-1353 (ATCC HTB-94)
Details: read-out: MK2 MSD SW1353 degradation 24 h GMean External Abs DC50

Consider the following illustrative entries.
COMPOUND | ASSAYED SYSTEM | DC50
C[C@@H]1CNc2c(sc3ccc4nc(N5CC6CCC(C5)N6CC5CCN(c6ccc7c(c6)n(C)c(=O)n7C6CCC(=O)NC6=O)CC5)ccc4c23)C(=O)N1 (some centres unmarked) [Compound I-433] | MK2 (Homo sapiens) | > 100 nM
C[C@@H]1Cc2[nH]c(-c3ccnc(-c4ccc(N5CCN(CC6CCN(c7cccc8c7n(C)c(=O)n8C7CCC(=O)NC7=O)CC6)CC5)cc4)c3)cc2C(=O)N1 (some centres unmarked) [Compound I-290] | MK2 (Homo sapiens) | 1 to 10 nM
C[C@@H]1CN(C)c2c(sc3ccc4nc(-c5ccc(N6CCN(CC7CCN(c8cccc9c8n(C)c(=O)n9C8CCC(=O)NC8=O)CC7)CC6)cc5)ccc4c23)C(=O)N1 (some centres unmarked) [Compound I-274] | MK2 (Homo sapiens) | 10 to 100 nM
C[C@@H]1CNc2c(sc3ccc4nc(-c5ccc(N6CCN(CCCc7ccc8c(c7)n(C)c(=O)n8C7CCC(=O)NC7=O)CC6)nc5)ccc4c23)C(=O)N1 (some centres unmarked) [Compound I-287] | MK2 (Homo sapiens) | < 1 nM
C[C@@H]1CNc2c(sc3ccc4nc(-c5ccc(N6CCN(CC7CN(c8cccc9c8n(C)c(=O)n9C8CCC(=O)NC8=O)C7)CC6)cc5)ccc4c23)C(=O)N1 (some centres unmarked) [Compound I-269] | MK2 (Homo sapiens) | 1 to 10 nM

Go through the items and report each one's DC50.
1. C[C@@H]1CNc2c(sc3ccc4nc(N5CCC(N6CCC7(CCN(c8ccc9c(c8)n(C)c(=O)n9C8CCC(=O)NC8=O)CC7)CC6)CC5)ccc4c23)C(=O)N1 (some centres unmarked) [Compound I-395]
2. C[C@@H]1CNc2c(sc3ccc4nc(-c5ccc(N6CCN(CCc7ccc8c(c7)n(C)c(=O)n8C7CCC(=O)NC7=O)CC6)nc5)ccc4c23)C(=O)N1 (some centres unmarked) [Compound I-279]
3. CC(C)Oc1cc(-c2ccc3c(ccc4sc5c(c43)NC[C@@H](C)NC5=O)n2)cc(N2CCN(CC3CCN(c4ccc5c(c4)n(C)c(=O)n5C4CCC(=O)NC4=O)CC3)CC2)c1 (some centres unmarked) [Compound I-230]
4. C[C@@H]1CNc2c(sc3ccc4nc(N5CCC(N6CCC7(CCN(c8ccc9c(c8)n(C)c(=O)n9C8CCC(=O)NC8=O)CC7)C6)CC5)ccc4c23)C(=O)N1 (some centres unmarked) [Compound I-410]
5. C[C@@H]1CNc2c(sc3ccc4nc(-c5cccc(N6CCN(CCN7CCC(CCc8cccc9c8n(C)c(=O)n9C8CCC(=O)NC8=O)CC7)CC6)c5)ccc4c23)C(=O)N1 (some centres unmarked) [Compound I-105]
6. C[C@@H]1CNc2c(sc3ccc4nc(-c5ccc(N6CCN(CCCCOc7ccc(N8CCC(=O)NC8=O)cc7)CC6)nc5)ccc4c23)C(=O)N1 [Compound I-437]

1. < 1 nM
2. < 1 nM
3. < 1 nM
4. < 1 nM
5. 1 to 10 nM
6. 1 to 10 nM
